The measurements presented in this section are drawn from patent US20100105680A1.

molecular target: sigma-1 receptor (Cavia porcellus); construct: guinea pig brains were homogenized; from tissue; host or cells: guinea pig brain membranes; test: Sigma-1 receptor binding ([3H]-(+)-pentazocine, brain membranes); details: compound concentration 0.1000 μM; [3H]-(+)-pentazocine 0.5 nM; guinea pig brain membranes; read-out: Percent Inhibition Percent Concentration (μM) 0.1000 SIGMA-1 receptor
Sequence (Q60492 whole entry): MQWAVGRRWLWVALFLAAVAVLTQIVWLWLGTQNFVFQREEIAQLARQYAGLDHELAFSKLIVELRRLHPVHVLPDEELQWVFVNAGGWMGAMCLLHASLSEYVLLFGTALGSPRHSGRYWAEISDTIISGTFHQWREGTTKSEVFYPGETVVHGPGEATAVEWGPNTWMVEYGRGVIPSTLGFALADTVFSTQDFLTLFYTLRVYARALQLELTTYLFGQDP
readout kind: inhibition at 0.1 µM (%)

molecule: CC1(C)[C@@H](CCn2ccc3c2CCCC3=O)C[C@H]1CN1CCOCC1 [compound 46]
measured target: sigma-1 receptor (Cavia porcellus)
inhibition at 0.1 µM (%): 83

molecule: CC1(C)[C@@H](CCN2CCc3ccccc3C2)C[C@H]1CN1CCOCC1 [compound 47]
measured target: sigma-1 receptor (Cavia porcellus)
inhibition at 0.1 µM (%): 92

molecule: CC1(C)[C@@H](CCn2cccn2)C[C@H]1CN1CCCCC1 [compound 49]
measured target: sigma-1 receptor (Cavia porcellus)
inhibition at 0.1 µM (%): 92

molecule: CC1(C)[C@@H](CCN2CCC(c3ccccc3)CC2)C[C@H]1CN1CCCCC1 [compound 51]
measured target: sigma-1 receptor (Cavia porcellus)
inhibition at 0.1 µM (%): 81.9

molecule: CC1(C)[C@@H](CCOCc2ccccc2)C[C@H]1CN1CCOCC1 [compound 31]
measured target: sigma-1 receptor (Cavia porcellus)
inhibition at 0.1 µM (%): 101

molecule: CC1(C)[C@@H](COCc2ccccc2)C[C@H]1CN1CCOCC1 [compound 6]
measured target: sigma-1 receptor (Cavia porcellus)
inhibition at 0.1 µM (%): 98.4

molecule: CC1(C)[C@H](CCOCc2ccccc2)C[C@@H]1CN1CCCCC1 [compound 2]
measured target: sigma-1 receptor (Cavia porcellus)
inhibition at 0.1 µM (%): 95.9

molecule: CC1(C)[C@@H](CCn2cccn2)C[C@H]1CN1CCOCC1 [compound 44]
measured target: sigma-1 receptor (Cavia porcellus)
inhibition at 0.1 µM (%): 82.8

molecule: CC1(C)[C@H](COCc2ccccc2)C[C@@H]1CCN1CCCCC1 [compound 38]
measured target: sigma-1 receptor (Cavia porcellus)
inhibition at 0.1 µM (%): 98.5

molecule: CN1CCN(C[C@@H]2C[C@H](COCc3ccccc3)C2(C)C)CC1 [compound 10]
measured target: sigma-1 receptor (Cavia porcellus)
inhibition at 0.1 µM (%): 99.5

molecule: CC1(C)[C@H](CCOCc2ccccc2)C[C@@H]1CN1CCC(c2ccccc2)CC1 [compound 3]
measured target: sigma-1 receptor (Cavia porcellus)
inhibition at 0.1 µM (%): 97.7

molecule: CC1(C)[C@@H](CCO)C[C@H]1CN1CCC(c2ccccc2)CC1 [compound 22]
measured target: sigma-1 receptor (Cavia porcellus)
inhibition at 0.1 µM (%): 96.8

molecule: CC1(C)[C@H](COCc2ccccc2)C[C@@H]1CCN1CCOCC1 [compound 39]
measured target: sigma-1 receptor (Cavia porcellus)
inhibition at 0.1 µM (%): 95.8
